These measurements were taken from PubChem BioAssay (NCATS).

# System: P93_24
# method description: qHTS profiling for inhibitors of Plasmodium falciparum proliferation (AID 504749); also: nearly all actives have a fitted effect of over 60% in size
# measurement setup: P. falciparum in erythrocytes, SYBR Green DNA, 72 h; series mostly up to 28.7 µM
Records with an inconclusive call do not appear. Activity calls are given as the source filed them. Calls follow the shape of the dose curve; as a rule, active = well fitted inhibition curve with a large enough effect; inconclusive = small, poorly fitted or top-dose-only effect; inactive = flat fitted curve, though single readings scatter.
Pick from active, inactive when you respond.

{"compound": "OCC(O)[C@H]1O[C@@H]2O[C@H](C(Cl)(Cl)Cl)O[C@@H]2[C@H]1O (some centres undefined)", "class": "inactive"}
{"compound": "CC(Cc1ccccc1)N(C)C (centres undefined)", "class": "inactive"}
{"compound": "CC(=O)O[C@H]1C[C@H](O[C@H]2[C@@H](O)CC(O[C@H]3[C@@H](O)C[C@H](O[C@H]4CC[C@@]5(C)[C@H](CC[C@@H]6[C@@H]5CC[C@]5(C)[C@@H](C7=CC(=O)OC7)CC[C@]65O)C4)O[C@@H]3C)O[C@@H]2C)O[C@H](C)[C@H]1O[C@@H]1O[C@H](CO)[C@@H](O)[C@H](O)[C@H]1O (some centres undefined)", "class": "inactive"}
{"compound": "OC[C@@H](O)[C@H]1O[C@@H]2OC(C(Cl)(Cl)Cl)O[C@H]2[C@H]1O (some centres undefined)", "class": "inactive"}

Exercise: Tell me the assay call for C=C1CC2C(CC[C@]3(C)C(=O)CCC23)[C@]2(C)C=CC(=O)C=C12 (some centres undefined) please.
Key: inactive

Exercise: // next record COc1ccc2c3c1O[C@H]1[C@@H](O)C=C[C@H]4C(C2)NCCC341 (some centres undefined)
Key: inactive

Exercise: // next record [S]=[Sb][S][Sb]=[S]
Key: inactive

====

# Tested on: CP297
# method description: qHTS profiling for inhibitors of Plasmodium falciparum proliferation (AID 504749); also: nearly all actives have a fitted effect of over 60% in size
# measurement setup: P. falciparum in erythrocytes, SYBR Green DNA, 72 h; series mostly up to 28.7 µM
Results filed as inconclusive are left out. Calls of active or inactive are those of the source. Calls come from the whole dose curve; as a rule, active = well fitted inhibition curve with a large enough effect; inconclusive = small, poorly fitted or top-dose-only effect; inactive = flat fitted curve, though single readings scatter.
measurement kind: outcome

Worked cases, answers included:
{"compound": "Cc1ccc2c(c1)[C@@H]1CN(C)CC[C@H]1N2", "result": "inactive"}
{"compound": "C=CC[C@]1(O)CCC2C3CCC4=CCCCC4C3CCC21C (stereo not given in full)", "result": "inactive"}
{"compound": "CC1CC[C@@]2(NC1)OC1CC3C4CC[C@@H]5CC(O)CC[C@@]5(C)C4CC[C@]3(C)C1C2C (stereo not given in full)", "result": "inactive"}
{"compound": "CC1(C)S[C@@H]2[C@H](N)C(=O)N2C1C(=O)O (stereo not given in full)", "result": "inactive"}

Now for a further compound.
Exercise: GET /values?readout=outcome&item= CCCCCC(O)C1C(=O)OC(C)C(O)\C=C/C=C\C=C/C=C\C=C(\C)C(O)C(O)C(O)CC(O)CC(O)CC(O)CC(O)CC1O (stereo not given)
Key: inactive

====

# method description: qHTS assay for small molecule activators of the p53 signaling pathway (AID 651743); also: % of control where 0% means no effect
# measurement setup: HCT-116 p53RE-bla, beta-lactamase FRET ratio, 16 h; active compounds read high
Inconclusive results are not listed.
measurement kind: activation (%)
Supply the numeric figure in %, leaving out any unit text.

Worked cases, answers included:
{"compound": "COc1cccc(C(=O)NN(C(=O)c2cc(C)cc(C)c2)C(C)(C)C)c1C", "unit of measure": "%", "activation": -3.69}
{"compound": "CCCCC(O)(Cn1cncn1)c1ccc(Cl)cc1Cl (stereo not given)", "unit of measure": "%", "activation": -5.41}
{"compound": "COP(=S)(OC)Oc1ccc([N+](=O)[O-])c(C)c1", "unit of measure": "%", "activation": -5.64}
{"compound": "Cc1nn(-c2cc(NS(C)(=O)=O)c(Cl)cc2Cl)c(=O)n1C(F)F", "unit of measure": "%", "activation": -4.43}

Exercise: GET /values?readout=activation&item= CCOc1nc(C(Cl)(Cl)Cl)ns1
Key: -0.297

Exercise: // next record Cc1ccccc1C(=O)Nc1cccc(OC(C)C)c1
Key: -3.37

Exercise: // next record COP(=S)(OC)Oc1nc(Cl)c(Cl)cc1Cl
Key: 10.9

Exercise: // next record OC(c1ccc(Cl)cc1)(c1cncnc1)c1ccccc1Cl (stereo not given)
Key: -2.63

Exercise: // next record CCCCOC(=O)[C@@H](C)Oc1ccc(Oc2ccc(C#N)cc2F)cc1
Key: -5.96

Exercise: // next record CCOC(=O)C(Cl)Cc1cc(-n2nc(C)n(C(F)F)c2=O)c(F)cc1Cl (stereo not given)
Key: 1.44

Exercise: // next record CCOP(=O)(SC(C)CC)SC(C)CC (stereo not given)
Key: -0.0138

Exercise: // next record CCC(CC)Nc1c([N+](=O)[O-])cc(C)c(C)c1[N+](=O)[O-]
Key: -0.326

Exercise: // next record COP(=O)(OC)Oc1nc(Cl)c(Cl)cc1Cl
Key: 6.76

====

# System: FAB9
# method description: qHTS profiling for inhibitors of Plasmodium falciparum proliferation (AID 504749); also: nearly all actives have a fitted effect of over 60% in size
# measurement setup: P. falciparum in erythrocytes, SYBR Green DNA, 72 h; series mostly up to 28.7 µM
# Protocol: NIH National Institute of Allergy and Infectious Diseases [NIAID] NIH Chemical Genomics Center [NCGC] […] Because mature erythrocytes lack DNA, only Plasmodium-derived DNA is detected. NCGC Assay Protocol Summary: The SYBR Green viability assay was adapted from a method described previously (Plouffe et al., 2008). […] The following morning, fluorescence intensity at 485(14) nm excitation and 535(25) nm emission wavelengths was measured on an EnVision (Perkin Elmer) plate reader. […]
Records with an inconclusive call do not appear. Calls of active or inactive are those of the source. Calls come from the whole dose curve; as a rule, active = well fitted inhibition curve with a large enough effect; inconclusive = small, poorly fitted or top-dose-only effect; inactive = flat fitted curve, though single readings scatter.
Pick from active, inactive when you respond.

{"molecule": "CCOC(=O)c1cncn1[C@@H](C)c1ccccc1", "system": "FAB9", "class": "inactive"}
{"molecule": "CC(=O)O[C@H]1C[C@H](O[C@H]2[C@@H](O)CC(O[C@H]3[C@@H](O)C[C@H](O[C@H]4CC[C@@]5(C)[C@H](CC[C@@H]6[C@@H]5CC[C@]5(C)[C@@H](C7=CC(=O)OC7)CC[C@]65O)C4)O[C@@H]3C)O[C@@H]2C)O[C@H](C)[C@H]1O[C@@H]1O[C@H](CO)[C@@H](O)[C@H](O)[C@H]1O (stereo partly drawn)", "system": "FAB9", "class": "inactive"}
{"molecule": "C#CCN1CC(=O)N(COC(=O)[C@@H]2[C@@H](C=C(C)C)C2(C)C)C1=O", "system": "FAB9", "class": "inactive"}
{"molecule": "CC1OC(O[C@H]2C[C@@H](O)[C@]3(CO)[C@@H]4C(CC[C@]3(O)C2)[C@@]2(O)CC[C@H](C3=CC(=O)OC3)[C@@]2(C)C[C@H]4O)C(O)C(O)C1O (stereo partly drawn)", "system": "FAB9", "class": "inactive"}
{"molecule": "O=[N+]([O-])OC1CO[C@H]2C(O[N+](=O)[O-])COC12 (stereo partly drawn)", "system": "FAB9", "class": "inactive"}
{"molecule": "CN(C)C1C(=O)C(C(N)=O)C(=O)C2(O)C(=O)C3C(=O)c4c(O)cccc4C(C)(O)C3C(O)C12 (stereo not drawn)", "system": "FAB9", "class": "inactive"}
{"molecule": "CCC/C=C/C=C/C(=O)OC1/C(=C/C(=O)OC)CC2CC(C(C)O)OC(=O)CC(O)CC3CC(OC(C)=O)C(C)(C)C(O)(CC4C/C(=C/C(=O)OC)CC(/C=C\\C(C)(C)C1(O)O2)O4)O3 (stereo not drawn)", "system": "FAB9", "class": "active"}
{"molecule": "C[C@]12CC[C@H]3[C@@H](CC[C@@]45O[C@@H]4C(=O)C(C#N)C[C@]35C)[C@@H]1CC[C@@H]2O (stereo partly drawn)", "system": "FAB9", "class": "inactive"}

Exercise: Tell me the assay call for Nc1nc(O)c(-c2ccccc2)o1 please.
Key: inactive

Exercise: // next record NC(Cc1ccc(Oc2cc(I)c(O)c(I)c2)c(I)c1)C(=O)O (stereo not drawn)
Key: inactive

Exercise: // next record COC(=O)C1C(OC(=O)c2ccccc2)CC2CCC1N2C (stereo not drawn)
Key: inactive

Exercise: // next record CCC(=O)OC1(c2ccccc2)CCN(C)CC1C (stereo not drawn)
Key: inactive

Exercise: // next record CC(C)=CC1C(C(=O)OCc2coc(Cc3ccccc3)c2)C1(C)C (stereo not drawn)
Key: inactive

Exercise: // next record C=C1CC2C(CC[C@]3(C)C(=O)CCC23)[C@]2(C)C=CC(=O)C=C12 (stereo partly drawn)
Key: inactive

Exercise: // next record COc1ccc2c3c1O[C@H]1[C@@H](O)C=C[C@H]4C(C2)NCCC341 (stereo partly drawn)
Key: inactive

Exercise: // next record CN(C)[C@@H](Cc1ccccc1)c1ccccc1
Key: inactive

Exercise: // next record [S]=[Sb][S][Sb]=[S]
Key: inactive

Exercise: // next record O=C1CC2OCC=C3CN4CC[C@]56c7ccccc7N1C5C2[C@H]3C[C@H]46 (stereo partly drawn)
Key: inactive
